target: Estrogen receptor (Homo sapiens) (UniProt P03372); assay: qHTS assay to identify small molecule antagonists of the estrogen receptor alpha (ER-alpha) signaling pathway (AID 743069); settings: HEK293 ER-alpha-UAS-bla, beta-lactamase ratio, antagonist mode; series mostly up to 69.4 µM
Sequence (P03372 whole entry, looked up): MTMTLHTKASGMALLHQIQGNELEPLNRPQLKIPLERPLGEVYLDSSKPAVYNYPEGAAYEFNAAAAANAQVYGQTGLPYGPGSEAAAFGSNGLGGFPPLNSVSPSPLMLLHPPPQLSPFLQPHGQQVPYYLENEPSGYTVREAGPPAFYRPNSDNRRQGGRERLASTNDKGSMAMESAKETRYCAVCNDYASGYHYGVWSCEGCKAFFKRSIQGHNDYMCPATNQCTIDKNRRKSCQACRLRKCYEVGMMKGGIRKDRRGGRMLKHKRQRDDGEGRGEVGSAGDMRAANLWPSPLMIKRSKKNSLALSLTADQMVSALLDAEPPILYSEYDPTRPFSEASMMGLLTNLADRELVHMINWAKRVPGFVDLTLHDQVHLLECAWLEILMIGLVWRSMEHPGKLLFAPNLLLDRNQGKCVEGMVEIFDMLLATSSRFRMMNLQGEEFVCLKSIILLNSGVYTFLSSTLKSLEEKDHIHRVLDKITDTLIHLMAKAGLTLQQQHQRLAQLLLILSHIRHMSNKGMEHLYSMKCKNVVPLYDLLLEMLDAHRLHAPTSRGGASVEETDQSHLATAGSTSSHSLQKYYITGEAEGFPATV
Results filed as inconclusive are left out. The source made the active and inactive calls. Calls come from the whole dose curve; as a rule, active = well fitted curve in the direction sought with a large enough effect in the signal ratio in the repeat runs (not every such curve was filed as active); inconclusive = weak or mixed curves, or effect the other way; inactive = no such curve, though single readings can be large or run the other way; the % refers to the signal ratio.
measured.quantity: outcome

Examples from the recorded data:
[[record]]
compound = "CCOc1ccccc1N"
measurement = "inactive"

[[record]]
compound = "Cc1ccc(C)c(N)c1"
measurement = "inactive"

[[record]]
compound = "CCCCC(CC)COC(=O)COc1cc(Cl)c(Cl)cc1Cl (stereo not drawn)"
measurement = "inactive"

[[record]]
compound = "C=CCCCCCCCCO"
measurement = "inactive"

[[record]]
compound = "N#Cc1ccc(C(c2ccc(C#N)cc2)n2cncn2)cc1"
measurement = "inactive"

[[record]]
compound = "CN(CCCN1c2ccccc2CCc2ccccc21)CC(=O)c1ccc(Cl)cc1"
measurement = "inactive"

[[record]]
compound = "CC(C)(C)c1ccc(OC(=O)c2ccccc2O)cc1"
measurement = "inactive"


Let us move to another entry and its outcome.
Input: What value of measured outcome is listed for "CO[Si](C)(C)OC" ?
Output: inactive

----------
assay: qHTS assay to identify small molecule agonists of the progesterone receptor (PR) signaling pathway - cell viability counter screen (AID 1346799); conditions: PR-UAS-bla HEK293T viability, CellTiter-Glo luminescence, 16 h; series mostly up to 92.4 µM; note: nearly all actives have a fitted effect of over 45% in size
Inconclusive results are not listed. Calls of active or inactive are those of the source. Calls follow the shape of the full dose curve.
measured.quantity: activity change, negative = cytotoxicity

[[record]]
compound = "Cc1cn([C@@H]2O[C@H](CO)[C@@H](O)[C@@H]2F)c(=O)[nH]c1=O"
measured_quantity = "activity change, negative = cytotoxicity"
measurement = "inactive"

[[record]]
compound = "CCOC(=O)[C@H](CCc1ccccc1)N[C@@H](C)C(=O)N1Cc2cc(OC)c(OC)cc2C[C@H]1C(=O)O"
measured_quantity = "activity change, negative = cytotoxicity"
measurement = "inactive"

[[record]]
compound = "CCN1CC(CCN2CCOCC2)C(c2ccccc2)(c2ccccc2)C1=O (configuration not stated)"
measured_quantity = "activity change, negative = cytotoxicity"
measurement = "inactive"

[[record]]
compound = "CCCCCCOc1ccc(N)cc1"
measured_quantity = "activity change, negative = cytotoxicity"
measurement = "inactive"

[[record]]
compound = "C=CCCCCCCCCO"
measured_quantity = "activity change, negative = cytotoxicity"
measurement = "inactive"


Input: Data request, read-out activity change, negative = cytotoxicity, for "CO[C@@]1(NC(=O)CSCC#N)C(=O)N2C(C(=O)O)=C(CSc3nnnn3C)CS[C@@H]21"
Output: inactive

Input: # lookup: activity change, negative = cytotoxicity of "CC/C=C\CCOC(=O)C(C)C"
Output: inactive

Input: Quick one: activity change, negative = cytotoxicity for "CC(C)C(=O)OC/C=C/c1ccccc1" ?
Output: inactive

----------
test: qHTS assay for small molecule agonists of the p53 signaling pathway (AID 651631); conditions: HCT-116 p53RE-bla reporter, beta-lactamase FRET ratio, 16 h; series mostly up to 73.3 µM; note: nearly all actives have a fitted effect of over 15% in size
Records with an inconclusive call do not appear. Active and inactive are the calls of the source. The call rests on the fitted dose curve.
A correct response names exactly one class from true for active, false for inactive

Input: I'd appreciate the recorded outcome for "CC[C@H]1CC[C@H](NCc2cc3c(cc2OC)[C@H]2C[C@H]2C(=O)N3C)[C@H](c2ccccc2)N1" from this test.
Output: true

Input: What was the test verdict on "CC(C)CCCCCCc1ccc(OCCOCCO)cc1" ?
Output: false

Input: Please share the test call associated with "CCN[C@H]1CN(CCCOC)S(=O)(=O)c2sc(S(N)(=O)=O)cc21" .
Output: false

Input: Tell me the assay call for "C=CCCC=C" please.
Output: false

Input: Identify the outcome logged in this assay for the compound shown: "C[C@]12C(=O)OC(=O)[C@H]1[C@H]1C=C[C@@H]2C1"
Output: false

Input: Answer briefly: the call reported for "FC(F)(F)C(Cl)(Cl)Cl" in this assay.
Output: false

Input: Kindly provide the recorded test outcome for the following compound: "NCCC(O)(P(=O)(O)O)P(=O)(O)O"
Output: false

----------
Assay: qHTS assay to identify small molecule agonists of the endoplasmic reticulum stress response signaling pathway - cell viability counter screen (AID 1159517);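 note: HeLa cells carrying an ER stress response element beta-lactamase reporter; nearly all actives have a fitted effect of over 50% in size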
Settings: ESRE-bla HeLa viability, CellTiter-Glo luminescence, 5 h; series mostly up to 61 µM
Excerpt: U.S. Tox21 Program National Center for Advancing Translational Sciences [NCATS] NIH Chemical Genomics Center [NCGC] U.S. Environmental Protection Agency [EPA] National Institutes of Environmental Health Sciences [NIEHS] National Toxicology Program [NTP] U.S. Food and Drug Administration [FDA] Tox21 Assay Overview: Endoplasmic Reticulum (ER) plays an important role in cellular signaling, protein folding/maturation, stress response, lipid biosynthesis, calcium storage and release etc. […]
Records with an inconclusive call do not appear. Activity calls are given as the source filed them. Calls follow the shape of the full dose curve.
measured.quantity: activity change, negative = cytotoxicity

Sample answers from the record:
[[record]]
molecule = "CCCCCCOc1ccc(N)cc1"
measurement = "inactive"

[[record]]
molecule = "COc1cc(N)c(Cl)cc1C(=O)NC1CCN(Cc2ccccc2)CC1"
measurement = "inactive"

[[record]]
molecule = "CCOC(=O)c1ccccc1O"
measurement = "inactive"

[[record]]
molecule = "CC(C)C[C@H](NC(=O)OCC1c2ccccc2-c2ccccc21)C(=O)O"
measurement = "inactive"


Input: activity change, negative = cytotoxicity lookup needed for "O=S(=O)(O)C(F)(F)F" , thanks.
Output: inactive

Input: Would you kindly share the measured activity change, negative = cytotoxicity for "CCc1cc(Cl)c(OC)c(C(=O)NC[C@@H]2CCCN2CC)c1O" ?
Output: inactive

Input: Please report the recorded activity change, negative = cytotoxicity for "O=C1CCCCCCCCCCC(=O)OCCO1" .
Output: inactive

Input: Tell me the measured activity change, negative = cytotoxicity of "CC(C)(C)c1cccc(O)c1" , please.
Output: inactive

Input: Any idea what activity change, negative = cytotoxicity was measured for "COc1cc(C)ccc1C(C)C" ?
Output: inactive

Input: Endpoint output: activity change, negative = cytotoxicity of C=CC1CO1 (stereo not given) . Value?
Output: inactive

Input: Name the reported activity change, negative = cytotoxicity value associated with the molecule COC(=O)C(C)O (stereo not given)
Output: inactive

Input: // lookup activity change, negative = cytotoxicity for "CCOc1ccc(OCC)c(Cl)c1"
Output: inactive

Input: Requested field: activity change, negative = cytotoxicity. Item: "O=C(O)c1cccc(Cl)c1Cl"
Output: inactive

Input: Which activity change, negative = cytotoxicity value belongs to "CCCCNc1cc(C(=O)O)cc(S(N)(=O)=O)c1Oc1ccccc1" ?
Output: inactive

Input: Recorded activity change, negative = cytotoxicity of "Cc1ncc(CO)c(CN)c1O" , please.
Output: inactive

----------
test: qHTS assay to identify small molecule antagonists of the estrogen related receptor (ERR) signaling pathway from Tox21 library (AID 1224848); settings: ERR reporter cell line, luciferase antagonist mode, 18 h; series mostly up to 92.4 µM; note: nearly all actives have a fitted effect of over 50% in size
Results filed as inconclusive are left out. Activity calls are given as the source filed them. Calls follow the shape of the dose curve; as a rule, active = well fitted inhibition curve with a large enough effect in the repeat runs; inconclusive = weak or mixed curves; inactive = no such curve, though single readings can be large or run the other way.
measured.quantity: activity, negative = inhibition

Examples from the recorded data:
[[record]]
chemical_smiles = "CCc1nnc(NS(=O)(=O)c2ccc(N)cc2)s1"
measurement = "inactive"

[[record]]
chemical_smiles = "O=C(CC(=O)C(F)(F)F)c1ccccc1"
measurement = "inactive"

[[record]]
chemical_smiles = "CC(C)(C)c1ccc(OC(=O)c2ccccc2O)cc1"
measurement = "inactive"

[[record]]
chemical_smiles = "CCOC(=O)c1cc(=O)c2c(OCC(COc3cccc4oc(C(=O)OCC)cc(=O)c34)OC(=O)[C@@H](N)CCCCN)cccc2o1"
measurement = "inactive"

[[record]]
chemical_smiles = "CC(=O)N[C@@H](CC(C)C)C(=O)O"
measurement = "inactive"


# context switch: different compound, same activity, negative = inhibition
Input: Fill in: activity, negative = inhibition of "Cc1cc2c(s1)Nc1ccccc1N=C2N1CCN(C)CC1" is ___
Output: inactive

----------
test: qHTS assay to identify small molecule agonists of the retinoic acid receptor (RAR) signaling pathway (AID 1159553); conditions: C3RL4 RARE luciferase reporter, agonist, 6 h; series mostly up to 73.3 µM
Inconclusive results are not listed. The source made the active and inactive calls. Calls follow the shape of the dose curve; as a rule, active = well fitted activation curve with a large enough effect in the repeat runs; inconclusive = weak or mixed curves, or effect the other way; inactive = no such curve, though single readings can be large or run the other way.
Write down the outcome that applies. Available outcomes: yes (active), no (inactive)

Input: // param item: "COc1ccc(Nc2ccc(OC)cc2)cc1" ; yields the recorded call
Output: yes

Input: Per the assay record, what outcome was assigned to "NCCCN1CCN(CCCN)CC1" ?
Output: no

Input: Please share the test call associated with "CC(C)C[C@H](NC(=O)OCC1c2ccccc2-c2ccccc21)C(=O)O" .
Output: yes

Input: What classification did "CCC(=O)Nc1ccc(O)cc1" end up with in this test?
Output: no

Input: Field: outcome | Entry: "CCCCCCCCOC(=O)CCCCCCCCC(=O)OCCCCCCCC"
Output: no

Input: Entry "CC(C)(C)c1ccc(OC(=O)c2ccccc2O)cc1" : call = ?
Output: yes

Input: # lookup: test call for CCOC(=O)C(Br)c1ccccc1 (stereo not drawn)
Output: no

Input: Which outcome was entered for the compound "O=C(O)c1cccc(Cl)c1Cl" in this test?
Output: no

Input: Kindly provide the recorded test outcome for the following compound: "CCCCCCCCCCCCOCCOS(=O)(=O)O"
Output: no

Input: So what was the verdict on COc1ccccc1OCC(O)COC(N)=O (stereo not drawn) in this test?
Output: no

Input: Call for entry "O=C(O[C@@H](C(=O)O)[C@@H](OC(=O)c1ccccc1)C(=O)O)c1ccccc1" :
Output: no

Input: What did the test return for CCCCC1CCC(=O)O1 (stereo not drawn) ?
Output: no

Input: Per the records of this test, what outcome belongs to "COc1ccccc1N1CCN(CCCNc2cc(=O)n(C)c(=O)n2C)CC1" ?
Output: no

Input: Write down the call the test reported for this compound. Item: CCCOc1ccc2c(c1)CC[C@@H]1[C@@H]2CC[C@]2(C)C(OC)CC[C@@H]12 (stereo partly drawn)
Output: no

Input: Query: recorded result category for "CC(=O)Nc1ccc(C)c(Cl)c1" in this test
Output: no

Input: What did the test return for "NC/C=C/C(=O)O" ?
Output: no

Input: Assay outcome for "COc1cc2c(cc1N)oc1ccccc12" : what was it?
Output: yes

Input: Test call, this compound: "OCCN(CCO)CCN(CCO)CCO"
Output: no

Input: For this compound, state the assay outcome: "NCCC(O)(P(=O)(O)O)P(=O)(O)O"
Output: no

Input: Check the results log: what was the call for "O=C1N(c2ccccc2)c2ccccc2C1(Cc1ccncc1)Cc1ccncc1" ?
Output: no

Input: Record lookup: outcome of this test for "Nc1ccc(Oc2ccc(N)c(N)c2)cc1" ?
Output: yes

Input: Please indicate how the test categorized "CC(C)=CCC[C@](C)(O)[C@@H]1CC=C(C)CC1" .
Output: no

Input: Short answer needed: outcome of this test for "CC(C)CCCCCCc1ccc(OCCOCCO)cc1" ?
Output: no

Input: Field: outcome | Entry: "CCCCCCn1c(=O)c2c(ncn2C)n(C)c1=O"
Output: no

Input: What call does the record list for "CCCC(CCC)(C(=O)OCC)C(=O)OCC" ?
Output: no

Input: // param item: "CCOc1ccc(OCC)c(Cl)c1" ; yields the recorded call
Output: no

Input: Called result for "CC(C)CC(=O)OCc1ccccc1"
Output: no

Input: // return assay outcome for "Cc1ccsc1C(=CCCN1CCC[C@@H](C(=O)O)C1)c1sccc1C"
Output: no
